Molecular target: R132H mutant IDH1 enzyme (Homo sapiens (Human), UniProt O75874, R132H)
Sequence (O75874 whole entry R132H): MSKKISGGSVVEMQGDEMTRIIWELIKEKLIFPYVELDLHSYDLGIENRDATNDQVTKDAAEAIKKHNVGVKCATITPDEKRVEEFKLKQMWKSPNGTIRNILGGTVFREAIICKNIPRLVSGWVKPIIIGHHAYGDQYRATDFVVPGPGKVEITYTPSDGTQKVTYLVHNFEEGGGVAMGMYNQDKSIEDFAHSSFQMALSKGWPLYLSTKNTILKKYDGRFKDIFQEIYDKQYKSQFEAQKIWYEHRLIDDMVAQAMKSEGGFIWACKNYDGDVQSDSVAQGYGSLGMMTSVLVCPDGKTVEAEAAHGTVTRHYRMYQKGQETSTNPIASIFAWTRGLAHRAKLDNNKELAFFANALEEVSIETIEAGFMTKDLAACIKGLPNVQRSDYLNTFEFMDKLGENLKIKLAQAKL
Assay: R132H IDH1 Enzymatic Assay
Format: biochemical
Settings: 1.5 nM final, 30 min preincubation, 60 min reaction, Kinase-GLO luminescence
PROPERTY_MEASURED: IC50
Units required after the number.

Returns the measured IC50 for the input compound. Input: O=C(C1CCN(CC(F)(F)F)CC1)N1Cc2cc(F)cnc2Nc2ccc(N3CC4CCC3CO4)cc21 (single isomer, unassigned) [Example 8]
25.4 nM

Returns the measured IC50 for the input compound. Input: `O=C(C1CCN(CC(F)(F)F)CC1)N1Cc2cc(F)cnc2Nc2ccc(N3C[C@@H]4C[C@H]3CO4)cc21`
12.1 nM

Returns the measured IC50 for the input compound. Input: `Cn1cc(-c2cc3c(cc2F)Nc2ncccc2CN3C(=O)C2CCN(CC(F)(F)F)CC2)cn1`
5.7 nM

Returns the measured IC50 for the input compound. Input: `O=C(C1CCN(CC(F)(F)F)CC1)N1Cc2cc(F)cnc2Nc2cc(F)c(N3CC4(CCCOC4)C3)cc21`
4.5 nM

* * *

Would you kindly list pIC50 for each of these compounds?
Target: R132H mutant IDH1 enzyme (Homo sapiens (Human), UniProt O75874, R132H)
Test: R132H IDH1 Enzymatic Assay
Conditions: 1.5 nM final, 30 min preincubation, 60 min reaction, Kinase-GLO luminescence
Worth noting: pIC50 values are minus log10 of concentrations stated in mol/L.

Returns the measured pIC50 for the input compound. Input: CC(C)O[C@H]1CC[C@H](C(=O)N2Cc3cc(F)cnc3Nc3cc(F)c([C@@H]4COCCO4)cc32)OC1 (single isomer, unassigned) [Example 36]
7.63

Returns the measured pIC50 for the input compound. Input: `O=C(C1CCN(CC(F)(F)F)CC1)N1Cc2cc(F)cnc2Nc2cc(F)c(N3C[C@@H]4C[C@H]3CO4)cc21`
8.17

Returns the measured pIC50 for the input compound. Input: `O=C(C1CCN(CC(F)(F)F)CC1)N1Cc2cc(F)cnc2Nc2cc(F)c(N3C[C@@H]4CC[C@H]3CO4)cc21`
7.74

Returns the measured pIC50 for the input compound. Input: CC(C)O[C@H]1CC[C@H](C(=O)N2Cc3cc(F)cnc3Nc3cc(F)c([C@@H]4COCCO4)cc32)OC1 (single isomer, unassigned) [Example 35]
7.55

Returns the measured pIC50 for the input compound. Input: COc1ccc2c(c1)N(C(=O)C1CCN(CC(F)(F)F)CC1)C(C)c1cccnc1N2 (stereo not shown)
6.67

Returns the measured pIC50 for the input compound. Input: `CC(C)O[C@H]1CC[C@H](C(=O)N2Cc3cc(F)cnc3Nc3cc(F)c(N4CC5(CCCOC5)C4)cc32)OC1`
7.74

Returns the measured pIC50 for the input compound. Input: `C[C@H]1CN(c2cc3c(cc2F)Nc2ncc(F)cc2CN3C(=O)C2CCN(CC(F)(F)F)CC2)[C@@H](C)CO1`
7.64

* * *

Biological target: R132H mutant IDH1 enzyme (Homo sapiens (Human), UniProt O75874, R132H)
Assay: R132H IDH1 Enzymatic Assay
Conditions: 1.5 nM final, 30 min preincubation, 60 min reaction, Kinase-GLO luminescence
PROPERTY_MEASURED: pIC50
Worth noting: pIC50 values are minus log10 of concentrations stated in mol/L.

I'm curious: which pIC50 was measured for O=C(C1CCN(CC(F)(F)F)CC1)N1Cc2cc(F)cnc2Nc2cc(F)c(N3CC4CCC3CO4)cc21 (stereo not drawn) [Example 29] tested on R132H mutant IDH1 enzyme (Homo sapiens (Human), UniProt O75874, R132H)?
8.00

I'm curious: which pIC50 was measured for `O=C(C1CCN(CC(F)(F)F)CC1)N1Cc2cccnc2Nc2cc(F)c([C@@H]3COCCO3)cc21` tested on R132H mutant IDH1 enzyme (Homo sapiens (Human), UniProt O75874, R132H)?
7.74

I'm curious: which pIC50 was measured for `CC(C)O[C@H]1CC[C@H](C(=O)N2Cc3cc(S(C)(=O)=O)cnc3Nc3ccc(N4C[C@@H]5CC[C@H]4CO5)cc32)CC1` tested on R132H mutant IDH1 enzyme (Homo sapiens (Human), UniProt O75874, R132H)?
5.24

I'm curious: which pIC50 was measured for `O=C(C1CCN(CC(F)(F)F)CC1)N1Cc2cccnc2Nc2cc(F)ccc21` tested on R132H mutant IDH1 enzyme (Homo sapiens (Human), UniProt O75874, R132H)?
6.76

I'm curious: which pIC50 was measured for `CC(C)O[C@H]1CC[C@@H](C(=O)N2Cc3cc(F)cnc3Nc3ccc(N4C[C@@H]5C[C@H]4CO5)cc32)CC1` tested on R132H mutant IDH1 enzyme (Homo sapiens (Human), UniProt O75874, R132H)?
8.22

I'm curious: which pIC50 was measured for CC(C)O[C@H]1CC[C@H](C(=O)N2Cc3cccnc3Nc3cc(F)c(N4CC5CCC4CO5)cc32)CC1 (stereo partly drawn) tested on R132H mutant IDH1 enzyme (Homo sapiens (Human), UniProt O75874, R132H)?
7.45

I'm curious: which pIC50 was measured for `CC(C)O[C@H]1CC[C@H](C(=O)N2Cc3cc(Cl)cnc3Nc3ccc(N4C[C@@H]5CC[C@H]4CO5)cc32)CC1` tested on R132H mutant IDH1 enzyme (Homo sapiens (Human), UniProt O75874, R132H)?
7.52

I'm curious: which pIC50 was measured for `CC(C)O[C@H]1CC[C@H](C(=O)N2Cc3cc(F)cnc3Nc3ccc(N4C[C@@H]5C[C@H]4CO5)cc32)CC1` tested on R132H mutant IDH1 enzyme (Homo sapiens (Human), UniProt O75874, R132H)?
8.07

I'm curious: which pIC50 was measured for `CC(C)O[C@H]1CC[C@H](C(=O)N2Cc3cc(F)cnc3Nc3cc(F)c(N4C5CCC4COC5)cc32)CC1` tested on R132H mutant IDH1 enzyme (Homo sapiens (Human), UniProt O75874, R132H)?
7.86

I'm curious: which pIC50 was measured for CC(C)O[C@H]1CC[C@H](C(=O)N2Cc3cc(F)cnc3Nc3cc(F)c(N4CC5CCC4CO5)cc32)OC1 (stereo partly drawn) tested on R132H mutant IDH1 enzyme (Homo sapiens (Human), UniProt O75874, R132H)?
7.94

I'm curious: which pIC50 was measured for `O=C(C1CCN(CC(F)(F)F)CC1)N1Cc2cc(F)cnc2Nc2ccc([C@@H]3COCCO3)cc21` tested on R132H mutant IDH1 enzyme (Homo sapiens (Human), UniProt O75874, R132H)?
8.19

I'm curious: which pIC50 was measured for `O=C(C1CCN(CC(F)(F)F)CC1)N1Cc2cccnc2Nc2cc(F)c(N3C[C@@H]4C[C@H]3CO4)cc21` tested on R132H mutant IDH1 enzyme (Homo sapiens (Human), UniProt O75874, R132H)?
7.56

I'm curious: which pIC50 was measured for `C[C@H]1CN(c2ccc3c(c2)N(C(=O)C2CCN(CC(F)(F)F)CC2)Cc2cc(F)cnc2N3)[C@@H](C)CO1` tested on R132H mutant IDH1 enzyme (Homo sapiens (Human), UniProt O75874, R132H)?
7.62

I'm curious: which pIC50 was measured for `O=C(C1CCN(CC(F)(F)F)CC1)N1Cc2cc(F)cnc2Nc2cc(F)ccc21` tested on R132H mutant IDH1 enzyme (Homo sapiens (Human), UniProt O75874, R132H)?
6.80

I'm curious: which pIC50 was measured for `CC(C)O[C@H]1CC[C@H](C(=O)N2Cc3cc(F)cnc3Nc3ccc([C@H]4COCCO4)cc32)OC1` tested on R132H mutant IDH1 enzyme (Homo sapiens (Human), UniProt O75874, R132H)?
7.66
